Reference for the values: patent US20160318856A1

- Test system: ASPC-1
- Protocol Description: cell proliferation assay, ASPC-1
- Assay type: cell-based
- Measurement Setup: Homo sapiens, ASPC1; SRB assay, Table 7; read-out: IC50 ASPC-1
Recorded Metric: IC50 (nM)

Worked set:
NC(=O)c1cc(O[C@H]2CC[C@H](NC(=O)Nc3cccc(C(F)(F)F)c3)CC2)ccc1C(F)(F)F	3000
NC(=O)c1cc(O[C@H]2CC[C@H](NC(=O)Nc3cccc(OC(F)(F)F)c3)CC2)ccc1C(F)(F)F	2900
NC(=O)c1cc(C(F)(F)F)ccc1O[C@H]1CC[C@H](NC(=O)Nc2cccc(OC(F)(F)F)c2)CC1	3200

I. CC(=O)Nc1cc(C(F)(F)F)ccc1O[C@H]1CC[C@H](NC(=O)Nc2cccc(OC(F)(F)F)c2)CC1
II. NC(=O)c1cc(C(F)(F)F)ccc1O[C@H]1CC[C@H](NC(=O)Nc2cccc(C(F)(F)F)c2)CC1
III. O=C(Nc1cccc(OC(F)(F)F)c1)N[C@H]1CC[C@H](Oc2ccc(C(F)(F)F)cc2[N+](=O)[O-])CC1
Query string: Sort entries by IC50 from minimum to maximum value. Rank the items, then write their labels in that order.
Result string: III, I, II
